Tested on: P388 leukemia ip, CD2F1 mice, survival T/C
test.description: NCI In Vivo Anticancer Drug Screen. Data for tumor model P388 Leukemia (intraperitoneal) in CD2F1 (CDF1) mice
test.conditions: endpoint: median survival time; dose: 200.0 mg/kg/injection; schedule: Q01DX001 (ip); vehicle: Klucel (hydroxypropylcellulose) (HPC); higher = longer survival
Toxic doses and inconclusive results are not listed.
Below, each of the molecules is paired with its reported T/C value.
property.label: T/C

>>> measured_result("CC(C)SC(=O)C=C(c1ccccc1)c1ccccc1")
"96 % of control"
>>> measured_result("C/C=C/CC1(C)N=C1c1ccccc1 (stereo not drawn)")
"99 % of control"
>>> measured_result("CCOC(CCl)(NC(C)=O)C(=O)OC (stereo not drawn)")
"100 % of control"

====

Tested on: P388 leukemia ip, CD2F1 mice, survival T/C
test.description: NCI In Vivo Anticancer Drug Screen. Data for tumor model P388 Leukemia (intraperitoneal) in CD2F1 (CDF1) mice
test.conditions: endpoint: median survival time; dose: 50.0 mg/kg/injection; schedule: Q01DX005 (ip); vehicle: Klucel (hydroxypropylcellulose) (HPC); higher = longer survival
Toxic doses and inconclusive results are not listed. Peptide text beside a SMILES is read from it. * marks the point of attachment. Cbz = O=C(OCc1ccccc1)*
Recorded T/C values for a group of molecules are listed next.
property.label: T/C

>>> measured_result("CCOC(=O)COc1cc2c(cc1C(C)c1ccc(OCc3ccccc3)c(OC)c1)OCO2 (centres undefined)")
"87 % of control"
>>> measured_result("CCCCC1SC2=NCCN2C1(O)c1ccc(Cl)cc1 (centres undefined)")
"113 % of control"
>>> measured_result("CCOP(=S)(N/N=C/c1c(CO)cnc(C)c1O)OCC")
"98 % of control"
>>> measured_result("COc1cc2nncc(Cl)c2cc1OC")
"101 % of control"
>>> measured_result("CCOC(=O)C1=C(C)OC(N)=C(C#N)C12C(=O)N(C)C(=O)c1ccccc12 (centres undefined)")
"101 % of control"
>>> measured_result("Cc1cnc(N)c(C(=O)O)n1")
"102 % of control"
>>> measured_result("N=c1nc(-c2ccccc2)c(-c2ccccc2)nn1CC(=O)c1ccc(Br)cc1")
"111 % of control"
>>> measured_result("C/C(=N\\NC(=S)N1CCCCCC1)c1nccnc1C")
"122 % of control"
>>> measured_result("Cc1nc2c3c4c(sc3nc(C)n2n1)CCCC4")
"105 % of control"
>>> measured_result("CC(C)CCOCCOCCCN1C(=O)C2C3C=CC(C3)C2C1=O (centres undefined)")
"99 % of control"
>>> measured_result("CCCCNC(=O)CCC(NS(=O)(=O)c1ccc(C)cc1)C(=O)NCCCC (centres undefined)")
"93 % of control"
>>> measured_result("CC(C)CC(NC(=O)C(Cc1cnc[nH]1)NC(=O)OCc1ccccc1)C(=O)O (stereo not drawn) (Cbz-His-Leu-OH; configuration not given here)")
"102 % of control"
>>> measured_result("Cc1cc[n+](C)c(Cc2ccccc2)c1C")
"112 % of control"
>>> measured_result("CC1CN(CC#CCN2C(=O)CCC2=O)CC(C)O1 (centres undefined)")
"107 % of control"

====

Tested on: P388 leukemia ip, CD2F1 mice, survival T/C
test.description: NCI In Vivo Anticancer Drug Screen. Data for tumor model P388 Leukemia (intraperitoneal) in CD2F1 (CDF1) mice
test.conditions: endpoint: median survival time; dose: 100.0 mg/kg/injection; schedule: Q01DX005 (ip); vehicle: saline with Tween-80; higher = longer survival
Toxic doses and inconclusive results are not listed.
# T/C annotations
property.label: T/C

>>> measured_result("O=C(N1C2c3ccsc3[C@@H](O)C21)C(F)(F)F (stereo partly drawn)")
"95 % of control"
>>> measured_result("COc1ccc2c(c1O)CN1CCc3cc4c(cc3C1C2)OCO4 (stereo not drawn)")
"110 % of control"
>>> measured_result("c1ccc(CNc2ncccn2)nc1")
"96 % of control"
>>> measured_result("CCCCCCCN(CCCCCCC)CC(O)c1ccc2cc(Cl)c3ccccc3c2c1 (stereo not drawn)")
"112 % of control"
>>> measured_result("O=C1CCC2OC3CCC(=O)N3CN12 (stereo not drawn)")
"98 % of control"
>>> measured_result("CCCCCCCCCCCC(=O)NCCOCCOCCOCCOCCOCCOCCOCCOCCO (tested in a mixture with another compound)")
"102 % of control"
>>> measured_result("Fc1cccc2c(C#Cc3ccccc3)c3ccccc3c(C#Cc3ccccc3)c12")
"94 % of control"
>>> measured_result("CCOC(=O)Cc1csc(=S)n1-c1ccccc1")
"102 % of control"

====

Test system: P388 leukemia ip, CD2F1 mice, survival T/C
test.description: NCI In Vivo Anticancer Drug Screen. Data for tumor model P388 Leukemia (intraperitoneal) in CD2F1 (CDF1) mice
test.conditions: endpoint: median survival time; dose: 100.0 mg/kg/injection; schedule: Q01DX001 (ip); vehicle: saline with Tween-80; higher = longer survival
Toxic doses and inconclusive results are not listed.
This listing pairs compounds with measured T/C.
property.label: T/C

>>> measured_result("N#C[C@H]1C[C@@H](c2ccc([N+](=O)[O-])cc2)N(c2ccc(C=O)cc2)O1")
"98 % of control"
>>> measured_result("Nc1ncc(CCCCc2ccccc2)c(=O)[nH]1")
"100 % of control"
>>> measured_result("COC1=C(OC)C(=O)C2=C(OCCO2)C1=O")
"107 % of control"
>>> measured_result("CC(C)(F)c1nc2cc3ccccc3cc2[nH]c1=O")
"98 % of control"
>>> measured_result("Nc1cc(Cl)c(O)c(Cl)c1")
"90 % of control"

====

Tested on: P388 leukemia ip, CD2F1 mice, survival T/C
test.description: NCI In Vivo Anticancer Drug Screen. Data for tumor model P388 Leukemia (intraperitoneal) in CD2F1 (CDF1) mice
test.conditions: endpoint: median survival time; dose: 50.0 mg/kg/injection; schedule: Q01DX009 (ip); vehicle: saline
Toxic doses and inconclusive results are not listed. How the source made its calls: active means survival T/C of 150% or more; inactive means T/C below 125% in these data.
Labels: active, inactive

>>> label_value("O=S(=O)(c1ccc(N=Cc2cccs2)cc1)c1ccc(N=Cc2cccs2)cc1")
"inactive"
>>> label_value("CC1(C)NC(=S)N(O)C1(C)C")
"inactive"
>>> label_value("O=C1c2ccccc2COC1c1ccccc1 (stereo not drawn)")
"inactive"
>>> label_value("COc1cc(C2OCCO2)cc(OC)c1O")
"inactive"
>>> label_value("O=S(=O)(Cc1ccccc1)C1CC1")
"inactive"
>>> label_value("CCCCC(C)(CN(C)C)C(=O)/C=C/c1ccccc1 (stereo not drawn)")
"inactive"
>>> label_value("Cc1nc(N)n[nH]1")
"inactive"
>>> label_value("COC(OC)C(C)(C)NC1CCCCC1")
"inactive"
>>> label_value("CN(C/C=C/CN(C)C(=S)Nc1ccccc1)C(=S)Nc1ccccc1")
"inactive"
>>> label_value("CCOP(=O)(OCC)C1OCC(O)C(C2OC(P(=O)(OCC)OCC)OCC2O)O1 (stereo not drawn)")
"inactive"
>>> label_value("CCCCCCCCS(=O)(=O)NC")
"inactive"
>>> label_value("NC(=O)CC(N)CO (stereo not drawn)")
"inactive"
>>> label_value("CC1CN1P1(N2CC2C)=NP(N2CC2C)(N2CC2C)=NP(N2CC2C)(N2CC2C)=N1 (stereo not drawn)")
"active"
>>> label_value("C[CH2][GeH][CH2]C.C[CH2][Ge]([CH2]C)[CH2]C")
"inactive"
>>> label_value("Cc1[nH]oc(=O)c1C(=O)O")
"inactive"
>>> label_value("C1CC[N+]2(CC1)CCCCC2")
"inactive"
>>> label_value("CC([OH2+])CNCCN.CC([OH2+])CNCCN.O=[N+]([O-])[O-].[Cu+2] (stereo not drawn)")
"inactive"
>>> label_value("Cc1ccc(OS(=O)(=O)NC(=O)NCc2ccco2)cc1")
"inactive"

====

Test system: P388 leukemia ip, CD2F1 mice, survival T/C
test.description: NCI In Vivo Anticancer Drug Screen. Data for tumor model P388 Leukemia (intraperitoneal) in CD2F1 (CDF1) mice
test.conditions: endpoint: median survival time; dose: 100.0 mg/kg/injection; schedule: Q01DX009 (ip); vehicle: saline; higher = longer survival
Toxic doses and inconclusive results are not listed.
property.label: T/C

>>> measured_result("COc1cc(CCN)ccc1OCc1ccccc1")
"110 % of control"
>>> measured_result("S=C(Nc1ccccn1)c1ccccn1")
"103 % of control"
>>> measured_result("Cc1ccc(OS(=O)(=O)NC(=O)NCc2ccco2)cc1")
"101 % of control"
>>> measured_result("C[CH2][GeH][CH2]C.C[CH2][Ge]([CH2]C)[CH2]C")
"90 % of control"
>>> measured_result("N/C(Cc1noc2ccccc12)=N\\O")
"107 % of control"
>>> measured_result("CC1CN1P1(N2CC2C)=NP(N2CC2C)(N2CC2C)=NP(N2CC2C)(N2CC2C)=N1 (stereo not given)")
"90 % of control"
>>> measured_result("Cn1cnc([N+](=O)[O-])c1C(=O)O")
"89 % of control"
>>> measured_result("NCCc1cc(O)c(O)c(O)c1")
"117 % of control"
>>> measured_result("CCC[N+]1([O-])CCOCC1")
"100 % of control"
>>> measured_result("CC1(C)CCCC2C1=NOC2O (stereo not given)")
"96 % of control"
>>> measured_result("COc1cc2ccc3c(c2cc1OC)CNCC3")
"100 % of control"
>>> measured_result("CC1(C)C(=O)C(C)(C)C1O")
"95 % of control"
>>> measured_result("CN(C)N=Nc1cccc(Cl)c1")
"97 % of control"
>>> measured_result("CP1(=S)CCC(=O)C1 (stereo not given)")
"101 % of control"
>>> measured_result("O=C(N/N=C/c1cccc2ccccc12)c1cccnc1")
"98 % of control"
